Experiment: RP, Waters ACQUITY UPLC BEH C18, 100 × 1 mm, 1.7 µm, 50 °C, 0.3 mL/min, estimated dead time 0.17 min; A: water + 0.1% formic acid + 20 mM ammonium formate; B: methanol + 0.1% formic acid + 20 mM ammonium formate; gradient (min/%B) 0/0 15/100 21/100 22/0 30/0
Measurement Conditions: stereoisomer not certain
Property Name: LC retention time (min)
One number for each entry, in min.

As a guide, the following entries are already answered.
S=c1[nH]c2ccccc2s1 | 11
CCOP(=S)(NC(C)C)Oc1ccccc1C(=O)OC(C)C (stereo unspecified) [Isofenphos (-ethyl)] | 16
NCCc1c[nH]c2ccccc12 | 7
Oc1ccc(C2(c3ccc(O)cc3)CCCCC2)cc1 | 16
COc1ccc(C(=CC(=O)N2CCOCC2)c2ccc(Cl)cc2)cc1OC | 14.4
CC(CCC(=O)O)C1CCC2C3C(=O)CC4CC(O)CCC4(C)C3CCC12C (stereo unspecified) | 19.2

// each listed molecule needs a value for LC retention time
1. O=[N+]([O-])c1ccc(O)c([N+](=O)[O-])c1
2. O=C(O)/C=C/c1ccccc1 [trans-Cinnamic acid]
3. CCOP(=S)(OCC)Oc1cnc2ccccc2n1
4. O=c1cc(-c2ccc(O)c(O)c2)oc2cc(OC3OC(CO)C(O)C(O)C3O)cc(O)c12 (stereo unspecified) [Luteolin 7-glucoside]

Out:
[9.71, 9.9, 15.3, 9.71]
